Target chain: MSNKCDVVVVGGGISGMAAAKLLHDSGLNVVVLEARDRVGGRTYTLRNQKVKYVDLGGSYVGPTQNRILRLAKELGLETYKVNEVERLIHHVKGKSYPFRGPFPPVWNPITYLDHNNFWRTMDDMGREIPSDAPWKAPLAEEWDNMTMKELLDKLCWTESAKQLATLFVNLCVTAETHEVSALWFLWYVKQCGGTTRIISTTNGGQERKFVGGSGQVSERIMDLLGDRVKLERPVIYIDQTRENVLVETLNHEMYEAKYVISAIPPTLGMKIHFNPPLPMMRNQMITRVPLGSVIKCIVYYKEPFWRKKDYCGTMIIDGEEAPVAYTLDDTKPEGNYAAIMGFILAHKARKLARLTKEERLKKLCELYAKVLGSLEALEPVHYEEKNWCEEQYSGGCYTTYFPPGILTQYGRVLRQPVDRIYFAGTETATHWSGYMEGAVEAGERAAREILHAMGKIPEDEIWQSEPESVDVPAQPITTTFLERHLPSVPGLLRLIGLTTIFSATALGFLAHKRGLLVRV
recorded_metric: IC50

Entry COC1CCN(c2ncc(OC/C(=C/F)CN)cn2)CC1 — recorded IC50 = > 50 µM
